Origin of the recorded values: patent US20210388087A1

Listed next: entries and their corresponding fold change of affinity.
# test-system: T1, Human CD3eg linker (human)
# T1 construct: Single-chain construct; also called recombinant human CD3
# T1 chain: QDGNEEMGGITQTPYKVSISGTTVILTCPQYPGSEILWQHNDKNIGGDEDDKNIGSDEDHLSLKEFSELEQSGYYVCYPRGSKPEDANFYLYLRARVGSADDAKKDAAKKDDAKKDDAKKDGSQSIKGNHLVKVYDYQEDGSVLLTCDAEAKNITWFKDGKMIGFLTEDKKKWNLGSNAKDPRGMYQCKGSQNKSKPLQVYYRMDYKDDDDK
# test-protocol: SPR; fold vs parent H183/L072

{"columns": ["binder", "units-label", "fold change of affinity"],
 "data": [
  ["H183/L072 VL A25R (antibody, name in Kabat numbering, V domains shown) VH: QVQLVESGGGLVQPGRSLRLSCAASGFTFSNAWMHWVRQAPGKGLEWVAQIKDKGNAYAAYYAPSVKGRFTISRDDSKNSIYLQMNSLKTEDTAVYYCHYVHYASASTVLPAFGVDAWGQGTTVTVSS VL: DIVMTQSPLSLPVTPGEPASISCQRSQELVHMNRNTYLHWYQQKPGQAPRLLIYKVSNRFPGVPDRFSGSGSGTDFTLKISRVEAEDVGVYYCAQGTSVPFTFGQGTKLEIK", "fold", 0],
  ["H183/L072 VL Q27H (antibody, name in Kabat numbering, V domains shown) VH: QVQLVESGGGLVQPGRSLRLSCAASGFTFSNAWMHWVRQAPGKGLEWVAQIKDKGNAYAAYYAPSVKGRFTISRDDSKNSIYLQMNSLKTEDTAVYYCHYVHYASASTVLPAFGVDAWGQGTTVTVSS VL: DIVMTQSPLSLPVTPGEPASISCQASHELVHMNRNTYLHWYQQKPGQAPRLLIYKVSNRFPGVPDRFSGSGSGTDFTLKISRVEAEDVGVYYCAQGTSVPFTFGQGTKLEIK", "fold", 1.2],
  ["H183/L072 VL S26W (antibody, name in Kabat numbering, V domains shown) VH: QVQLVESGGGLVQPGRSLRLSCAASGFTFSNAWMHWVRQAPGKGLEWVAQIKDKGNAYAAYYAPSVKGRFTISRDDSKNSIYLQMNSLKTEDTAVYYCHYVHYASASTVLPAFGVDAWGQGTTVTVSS VL: DIVMTQSPLSLPVTPGEPASISCQAWQELVHMNRNTYLHWYQQKPGQAPRLLIYKVSNRFPGVPDRFSGSGSGTDFTLKISRVEAEDVGVYYCAQGTSVPFTFGQGTKLEIK", "fold", 0.3],
  ["H183/L072 VL V94A (antibody, name in Kabat numbering, V domains shown) VH: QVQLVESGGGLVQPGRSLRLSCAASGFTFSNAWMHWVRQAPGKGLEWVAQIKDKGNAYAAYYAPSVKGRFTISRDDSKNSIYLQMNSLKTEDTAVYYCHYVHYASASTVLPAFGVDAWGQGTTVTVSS VL: DIVMTQSPLSLPVTPGEPASISCQASQELVHMNRNTYLHWYQQKPGQAPRLLIYKVSNRFPGVPDRFSGSGSGTDFTLKISRVEAEDVGVYYCAQGTSAPFTFGQGTKLEIK", "fold", 1],
  ["H183/L072 VL L33M (antibody, name in Kabat numbering, V domains shown) VH: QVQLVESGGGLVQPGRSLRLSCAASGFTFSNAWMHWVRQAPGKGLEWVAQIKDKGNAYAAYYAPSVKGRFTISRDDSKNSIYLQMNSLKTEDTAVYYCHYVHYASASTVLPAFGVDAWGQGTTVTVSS VL: DIVMTQSPLSLPVTPGEPASISCQASQELVHMNRNTYMHWYQQKPGQAPRLLIYKVSNRFPGVPDRFSGSGSGTDFTLKISRVEAEDVGVYYCAQGTSVPFTFGQGTKLEIK", "fold", 1.1],
  ["H183/L072 VL Y32H (antibody, name in Kabat numbering, V domains shown) VH: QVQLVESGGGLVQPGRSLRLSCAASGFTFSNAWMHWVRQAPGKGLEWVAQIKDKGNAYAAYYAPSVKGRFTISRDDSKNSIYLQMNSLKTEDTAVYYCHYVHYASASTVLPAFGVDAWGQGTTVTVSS VL: DIVMTQSPLSLPVTPGEPASISCQASQELVHMNRNTHLHWYQQKPGQAPRLLIYKVSNRFPGVPDRFSGSGSGTDFTLKISRVEAEDVGVYYCAQGTSVPFTFGQGTKLEIK", "fold", 0],
  ["H183/L072 VL V51I (antibody, name in Kabat numbering, V domains shown) VH: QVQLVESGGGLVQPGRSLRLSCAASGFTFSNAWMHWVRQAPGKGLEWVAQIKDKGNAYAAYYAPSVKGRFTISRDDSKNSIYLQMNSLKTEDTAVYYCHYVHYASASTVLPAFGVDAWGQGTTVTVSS VL: DIVMTQSPLSLPVTPGEPASISCQASQELVHMNRNTYLHWYQQKPGQAPRLLIYKISNRFPGVPDRFSGSGSGTDFTLKISRVEAEDVGVYYCAQGTSVPFTFGQGTKLEIK", "fold", 1.4],
  ["H183/L072 VL T97S (antibody, name in Kabat numbering, V domains shown) VH: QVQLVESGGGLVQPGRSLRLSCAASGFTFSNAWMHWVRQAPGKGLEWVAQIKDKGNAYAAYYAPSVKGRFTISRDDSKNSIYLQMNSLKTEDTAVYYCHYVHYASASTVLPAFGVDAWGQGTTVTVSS VL: DIVMTQSPLSLPVTPGEPASISCQASQELVHMNRNTYLHWYQQKPGQAPRLLIYKVSNRFPGVPDRFSGSGSGTDFTLKISRVEAEDVGVYYCAQGTSVPFSFGQGTKLEIK", "fold", 1.1],
  ["H183/L072 VL A89T (antibody, name in Kabat numbering, V domains shown) VH: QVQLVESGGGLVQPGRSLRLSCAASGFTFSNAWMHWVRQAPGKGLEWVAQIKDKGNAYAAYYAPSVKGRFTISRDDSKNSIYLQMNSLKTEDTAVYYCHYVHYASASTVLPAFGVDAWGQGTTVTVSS VL: DIVMTQSPLSLPVTPGEPASISCQASQELVHMNRNTYLHWYQQKPGQAPRLLIYKVSNRFPGVPDRFSGSGSGTDFTLKISRVEAEDVGVYYCTQGTSVPFTFGQGTKLEIK", "fold", 0],
  ["H183/L072 VL N30S (antibody, name in Kabat numbering, V domains shown) VH: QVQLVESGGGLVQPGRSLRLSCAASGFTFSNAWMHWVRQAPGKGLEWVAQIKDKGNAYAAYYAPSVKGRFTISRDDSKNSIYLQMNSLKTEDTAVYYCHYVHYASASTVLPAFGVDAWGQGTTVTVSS VL: DIVMTQSPLSLPVTPGEPASISCQASQELVHMNRSTYLHWYQQKPGQAPRLLIYKVSNRFPGVPDRFSGSGSGTDFTLKISRVEAEDVGVYYCAQGTSVPFTFGQGTKLEIK", "fold", 0]
]}
